For each of the sequences below, state its PBM E-score.
- Target under test: Ste12 (UniProt P13574)
- Sequence (P13574 whole entry): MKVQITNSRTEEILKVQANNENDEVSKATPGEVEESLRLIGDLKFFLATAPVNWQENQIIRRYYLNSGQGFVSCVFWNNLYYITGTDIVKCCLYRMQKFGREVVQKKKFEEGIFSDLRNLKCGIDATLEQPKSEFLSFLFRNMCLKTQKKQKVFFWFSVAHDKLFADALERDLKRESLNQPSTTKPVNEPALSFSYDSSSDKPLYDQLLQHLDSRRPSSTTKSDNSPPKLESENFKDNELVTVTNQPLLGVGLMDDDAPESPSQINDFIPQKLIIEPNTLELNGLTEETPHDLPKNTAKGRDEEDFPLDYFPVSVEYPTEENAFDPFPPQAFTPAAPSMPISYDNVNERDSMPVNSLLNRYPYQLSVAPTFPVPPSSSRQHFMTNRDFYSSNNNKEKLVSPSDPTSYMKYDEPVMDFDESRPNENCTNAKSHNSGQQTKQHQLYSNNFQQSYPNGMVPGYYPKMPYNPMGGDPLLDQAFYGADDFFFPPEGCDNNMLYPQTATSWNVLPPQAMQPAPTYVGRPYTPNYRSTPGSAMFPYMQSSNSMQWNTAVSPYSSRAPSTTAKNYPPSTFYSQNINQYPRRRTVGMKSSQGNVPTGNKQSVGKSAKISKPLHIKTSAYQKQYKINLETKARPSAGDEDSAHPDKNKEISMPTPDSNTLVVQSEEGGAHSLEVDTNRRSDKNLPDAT
- Experiment: PBM E-score (8-mer binding enrichment) (E-score (-0.5 to 0.5)); higher = stronger / more preferred TF binding
- Reported conditions: protein concentration: 200 nM; construct: GST-DNA-binding domain
The full ranking holds about 33,000 sequences; the median of “E-score (-0.5 to 0.5)” is about -0.01, and the highest 2% start at about 0.26. This is one part of a sample in which the highest values are shown more often than they occur.

Consider the following illustrative entries.
Sequence string	PBM E-score
AAAAACAT	0.241
ACCGCGCT	-0.16
CAAAAAGA	0.178

I'm hoping you can list PBM E-score for every sequence here, please.
1. CCCTGAGG
2. CACATTAA
3. GGTCTTCA

1: -0.213; 2: 0.0442; 3: -0.164

Please state PBM E-score for every sequence in the list that follows.
1. AGCGCGGC
2. ATGAAAAA
3. CCCGGCCG
4. CGAAACAG

[0.0144, 0.305, -0.239, 0.244]

Please go through the list and note PBM E-score for each sequence.
1. CCCATCAG
2. AATAAGAG

[-0.193, 0.0566]

Provide PBM E-score values for the following items, in order.
1. TAACCCAA
2. CACCCATA
3. AGTAATAG
4. ATTAATGG
5. ATTATTTG

0.182
0.105
0.0705
0.219
0.106

* * *

- Target under test: Ste12 (UniProt P13574)
- Experiment: PBM E-score (8-mer binding enrichment) (E-score (-0.5 to 0.5)); higher = stronger / more preferred TF binding
- Reported conditions: protein concentration: 200 nM; construct: GST-DNA-binding domain
In all, about 33,000 sequences were measured (“E-score (-0.5 to 0.5)”: median about -0.01, highest 2% from about 0.26 on). The full list was thinned out, with the highest values kept by preference.
Exercise: for every item that follows, state its recorded PBM E-score.
One number for each entry.

Before answering, review these 4 worked examples.
Sequence string	Observed result
AAGCCGGC	0.0834
ATCATCTC	0.0683
CGGAAGAA	0.0583
AGCTGCGC	-0.177

Batch lookup, PBM E-score per entry.
1. CACCCTCC
2. CAATTAGA
3. AGGGCCAC
4. ATAAAAGA
5. CGTGATCA
6. CGCAAACA

0.213
0.102
-0.202
0.0538
-0.00817
0.053

The sequence ACAGAATG , tested on Ste12 (UniProt P13574), showed PBM E-score of 0.0528

* * *

- Target under test: Ste12 (UniProt P13574)
- Experiment: PBM E-score (8-mer binding enrichment) (E-score (-0.5 to 0.5)); higher = stronger / more preferred TF binding
- Reported conditions: protein concentration: 200 nM; construct: GST-DNA-binding domain
In all, about 33,000 sequences were measured (“E-score (-0.5 to 0.5)”: median about -0.01, highest 2% from about 0.26 on). The full list was thinned out, with the highest values kept by preference.
Task for the reader: assign each of the following sequences its reported PBM E-score.
Answers are plain numbers.

Worked set:
Sequence string	Observed result
GGGTAAAC	0.119
GATCTGAA	0.0323
CAGCTGCG	-0.0692
CCCCCTCC	-0.121
ACCTCCCA	-0.187

Working through the 6 sequences below one at a time, give PBM E-score for each.
1. ACCCTCCC
2. ATTCCACG
3. ATTCCACC
4. ACCTCCCC
5. TCCTCCCA
6. GGATAAGA

[0.378, -0.0633, 0.113, 0.161, -0.0691, 0.0906]

* * *

- Target under test: Ste12 (UniProt P13574)
- Experiment: PBM E-score (8-mer binding enrichment) (E-score (-0.5 to 0.5)); higher = stronger / more preferred TF binding
- Reported conditions: protein concentration: 200 nM; construct: GST-DNA-binding domain
In all, about 33,000 sequences were measured (“E-score (-0.5 to 0.5)”: median about -0.01, highest 2% from about 0.26 on). The full list was thinned out, with the highest values kept by preference.
Note to self: class labels come from recorded PBM E-score, ranges listed here: low (below 0.09), moderate (0.09 to below 0.2), high (0.2 or more)

Consider the worked cases shown below.
Sequence string	Target under test	Group
GCTGTGAA	Ste12 (UniProt P13574)	low
TGATACAA	Ste12 (UniProt P13574)	high
ATGTCTCC	Ste12 (UniProt P13574)	low
CGGATAAA	Ste12 (UniProt P13574)	moderate
CCAATCGA	Ste12 (UniProt P13574)	low
AACAACGC	Ste12 (UniProt P13574)	moderate

The entry to classify is CGAAAAAC ; which class holds it? moderate

* * *

- Target under test: Ste12 (UniProt P13574)
- Experiment: PBM E-score (8-mer binding enrichment) (E-score (-0.5 to 0.5)); higher = stronger / more preferred TF binding
- Reported conditions: protein concentration: 200 nM; construct: GST-DNA-binding domain
Whole data set: some 33,000 sequences, median “E-score (-0.5 to 0.5)” near -0.01, cut for the highest 2% near 0.26. Shown is part of a subset that was picked to be rich in the highest values.
Label rule, in plain words: PBM E-score of -0.006 and up is label 1, under -0.006 is label 0.

In plain terms: is recorded PBM E-score at least -0.006 for AAAATTAC ? label 1

Does PBM E-score meet or surpass -0.006 for TTTCAAAA ? label 1

In plain terms: is recorded PBM E-score at least -0.006 for CTTCAAAC ? label 1

API: above_or_equal(metric=PBM E-score, cutoff=-0.006) for item CCGAAACC label 1

Could you please find out whether GCGAAACA has PBM E-score that meets -0.006 or exceeds it? label 1

Hi, just wondering whether CTGGTCGA shows PBM E-score of -0.006 or higher. label 0

Dear colleague, could you confirm whether AAGGCGGC has PBM E-score at or above -0.006? label 0

* * *

- Target under test: Ste12 (UniProt P13574)
- Experiment: PBM E-score (8-mer binding enrichment) (E-score (-0.5 to 0.5)); higher = stronger / more preferred TF binding
- Reported conditions: protein concentration: 200 nM; construct: GST-DNA-binding domain
Over roughly 33,000 sequences, “E-score (-0.5 to 0.5)” has its median near -0.01; the highest 2% begin near 0.26. Shown is part of a subset that was picked to be rich in the highest values.
Measurement kind: PBM E-score
Give bare numbers.

As a guide, the following entries are already answered.
Sequence string	Target under test	PBM E-score
AACGCCCT	Ste12 (UniProt P13574)	-0.0731
AAGAAGAG	Ste12 (UniProt P13574)	-0.00818

Batch of 3 sequences: report PBM E-score for each.
1. TCTTTCAA
2. GACATTGA
3. CTCTTTAC

1. 0.0772
2. 0.051
3. 0.0191

Below is a list of sequences. For each, state its recorded PBM E-score.
1. TATTTCAA
2. GTTTTCAA
3. AAGCCCCG
4. AAGACATG
5. AAAAGTTC
6. GCAGAGGC

[0.282, 0.32, 0.0304, -0.137, 0.0553, -0.185]

Please state PBM E-score for every sequence in the list that follows.
1. GCTTGACA
2. AAAAGTTG
3. AAAATGCA
4. ACGCCACG
5. AAACGCGG
6. TATTTACA

0.0364
0.127
0.00439
-0.182
0.264
0.101

Please give PBM E-score for each item listed below.
1. CTTTTCAA
2. CTAACCTC
3. AAAAGTGA
4. AACCTTAT

0.221
-0.0539
0.267
0.138

* * *

- Target under test: Ste12 (UniProt P13574)
- Experiment: PBM E-score (8-mer binding enrichment) (E-score (-0.5 to 0.5)); higher = stronger / more preferred TF binding
- Reported conditions: protein concentration: 200 nM; construct: GST-DNA-binding domain
Whole data set: some 33,000 sequences, median “E-score (-0.5 to 0.5)” near -0.01, cut for the highest 2% near 0.26. Many of the other results were omitted from the sample, so the highest values are more common in it than they were.
Provide the recorded PBM E-score for the entries that follow.
Numbers only.

Sequence string	Observed result
CACTGCAC	-0.14

Look at each sequence and report its PBM E-score.
1. AGGATTGC
2. GGACATAA
3. GGGCATAA
4. CAACTTGA
5. ATAATAAA

[-0.025, 0.0357, 0.218, 0.0746, 0.255]

Please go through the list and note PBM E-score for each sequence.
1. ATACATAA
2. GAGCTTTA
3. ATGATACG

1. 0.21
2. -0.0834
3. 0.25

Dear colleague, could you please provide PBM E-score for the sequences listed below?
1. AACCCAGA
2. AGACATAA
3. TAGCTGGA

1. -0.108
2. 0.101
3. -0.0515
